Here, each record is paired with measured pIC50 data.
Molecular target: Bifunctional epoxide hydrolase 2 (Homo sapiens, UniProt P34913)
Sequence (P34913 whole entry): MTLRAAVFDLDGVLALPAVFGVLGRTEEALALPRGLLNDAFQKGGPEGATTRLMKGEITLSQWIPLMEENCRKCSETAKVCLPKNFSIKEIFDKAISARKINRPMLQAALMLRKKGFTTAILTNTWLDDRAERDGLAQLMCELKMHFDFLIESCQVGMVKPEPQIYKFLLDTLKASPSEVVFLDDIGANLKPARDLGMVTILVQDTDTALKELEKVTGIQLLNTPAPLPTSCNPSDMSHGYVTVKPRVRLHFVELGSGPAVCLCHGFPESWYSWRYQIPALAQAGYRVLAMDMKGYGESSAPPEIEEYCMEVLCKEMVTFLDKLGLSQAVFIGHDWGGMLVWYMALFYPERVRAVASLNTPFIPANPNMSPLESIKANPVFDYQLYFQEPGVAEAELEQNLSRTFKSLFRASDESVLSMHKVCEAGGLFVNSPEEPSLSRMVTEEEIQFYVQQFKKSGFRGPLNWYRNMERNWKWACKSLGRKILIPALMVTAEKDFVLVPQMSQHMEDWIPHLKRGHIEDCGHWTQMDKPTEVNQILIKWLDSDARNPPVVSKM
Assay: Inhibition of sEH (unknown origin) assessed as substrate PHOME hydrolysis after 1 hr by fluorescence method
pIC50: −log10 of the molar value.

COMPOUND	MEASURED_ON	pIC50
C[C@@H]1O[C@@H](Oc2c(-c3ccc(O)c(O)c3)oc3cc(O)cc(O)c3c2=O)[C@H](OC(=O)c2cc(O)c(O)c(O)c2)[C@H](O)[C@H]1O	Bifunctional epoxide hydrolase 2 (Homo sapiens, UniProt P34913)	4.73
O=c1c(O[C@@H]2O[C@H](CO)[C@@H](O)[C@H](O)[C@H]2O)c(-c2ccc(O)c(O)c2)oc2cc(O)cc(O)c12 [ISOQUERCETIN]	Bifunctional epoxide hydrolase 2 (Homo sapiens, UniProt P34913)	4.55
O=c1c(O)c(-c2ccc(O)c(O)c2)oc2cc(O)cc(O)c12 [QUERCETIN]	Bifunctional epoxide hydrolase 2 (Homo sapiens, UniProt P34913)	4.47
O=c1oc2c(O)c(O)cc3c(=O)oc4c(O)c(O)cc1c4c23 [ELLAGIC ACID]	Bifunctional epoxide hydrolase 2 (Homo sapiens, UniProt P34913)	4.68
C[C@@H]1O[C@@H](OC[C@H]2O[C@@H](Oc3c(-c4ccc(O)c(O)c4)oc4cc(O)cc(O)c4c3=O)[C@H](O)[C@@H](O)[C@@H]2O)[C@H](O)[C@H](O)[C@H]1O [RUTIN]	Bifunctional epoxide hydrolase 2 (Homo sapiens, UniProt P34913)	4.61
O=C1C[C@H](C(=O)O)c2c1oc(=O)c1cc(O)c(O)c(O)c21	Bifunctional epoxide hydrolase 2 (Homo sapiens, UniProt P34913)	4.32
O=C(CCc1ccc(O)cc1)c1c(O)cc(O)cc1O[C@@H]1O[C@H](CO)[C@@H](O)[C@H](O)[C@H]1O [PHLORIZIN]	Bifunctional epoxide hydrolase 2 (Homo sapiens, UniProt P34913)	4.38

Data provenance: ChEMBL document CHEMBL3232869
